Source of measurements: PubChem BioAssay (NCI)

Assay Info: NCI Yeast Anticancer Drug Screen. Data for the mec2-1 strain (AID 157)
Study Conditions: S. cerevisiae mec2-1 strain, at 50.0 µM, hits give high values
About 79,000 compounds went through this panel and 15% of them were active in at least one assay; those are over-represented in the sample as a whole. Calls of active or inactive are those of the source. Rule as the data show it: active = growth inhibition above about 70%; inactive = the rest.
Measurement Name: growth inhibition

Study these solved cases before continuing.
C1CC[N+]2=C(C1)OCCC2; -2.15% (inactive)
CCCCN1CCC2(C)c3cc(O)ccc3CC1C2CC (stereo unspecified); 9.5% (inactive)
O=C1OC(=O)C2CC3C(CC12)C1(Cl)C(Cl)=C(Cl)C3(Cl)C1(Cl)Cl (stereo unspecified); -28.2% (inactive)
CNCCc1ccccc1; 6.05% (inactive)
CC1(C)N=C(N)N=C(N)N1c1ccc(CCC(=O)Nc2ccc(S(=O)(=O)F)cc2)cc1; 87.3% (active)
N[C@@H](Cc1ccc2oc3cc(=O)c4ccccc4c-3nc2c1)C(=O)O; 32.9% (inactive)

Query: Entry CC(C)C(C)(O)C#N (stereo unspecified) has what growth inhibition?
Reply: -2.1% (inactive)

Query: Could you share which growth inhibition value was measured for O=[N+]([O-])c1ccc(SN2C3CCCCC32)c([N+](=O)[O-])c1 (stereo unspecified) ?
Reply: 11.7% (inactive)

Query: // query growth inhibition value for entry CC(=O)OC1CCC2(C)C(CC(=O)C3C2CCC2(C)C(OC(C)=O)CCC32)C1 (stereo unspecified)
Reply: 7.35% (inactive)

Query: State the recorded growth inhibition for this entry: `CC(=O)Cc1ccc(C)cc1`
Reply: -41.8% (inactive)

Query: growth inhibition; subject: COc1c(O)cc2c(c1OC)-c1ccc(SC)c(=O)cc1C(NC(C)=O)CC2 (stereo unspecified)
Reply: -9.4% (inactive)

Query: # lookup: growth inhibition of `CCCC(=O)[O-].CCCC(=O)[O-].NCCN.NCCN.[Co+3].[O-][Cl+3]([O-])([O-])[O-]`
Reply: 19.1% (inactive)

Query: What measured growth inhibition goes with `CCOP(=O)(CC#N)OCC` ?
Reply: -11.7% (inactive)

* * *

Assay Info: NCI Yeast Anticancer Drug Screen. Data for the rad50 strain (AID 155);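 also: 0% = growth of vehicle-only cultures of the same strain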
Study Conditions: S. cerevisiae rad50 strain growth inhibition; at 50.0 µM
Compounds without any hit were thinned out: in the full panel of roughly 79,000, 15% have a hit. The source made the active and inactive calls. Cut-off read from the data, not from the text of the source: active = growth inhibition above about 70%; inactive = the rest.
Respond with a class label; see YES for active, NO for inactive

Example cases with answers are listed next.
O=S(=O)(F)c1ccccc1; NO
CN/N=C(/CCN1CCCC1)CC(c1ccccc1)c1c(O)c2ccccc2oc1=O (stereo not drawn); NO
Oc1c(Cl)cc(Cl)cc1C1N(Cc2ccc(N(CCCl)CCCl)cc2Cl)CCCN1Cc1ccc(N(CCCl)CCCl)cc1Cl; NO
O=C(O)C(Br)CBr (stereo not drawn); NO
C[C@]12CC[C@@H](OC(=O)N(CCCl)N=O)C[C@@H]1CC[C@@H]1[C@@H]2CC[C@]2(C)C(=O)CC[C@@H]12; NO
C#CC(=O)[O][Sn]([c]1ccccc1)([c]1ccccc1)[c]1ccccc1; YES
CCC1(CCO)C(=O)NC(=O)NC1=O; NO
CCCCOP(=S)(N1CCCCC1)N1CCCCC1; NO

Query: Fill in: this test's call for `Oc1ccc(Br)cc1` is ___
Reply: NO

Query: What call does the record list for `O=P(O)(O)c1ccccc1` ?
Reply: NO

Query: Called result for `COc1cc(O)c([N+](=O)[O-])cc1[N+](=O)[O-]`
Reply: NO

Query: Outcome logged for `CC(=O)OC(C)(C)/C=C/C(=O)[C@](C)(O)[C@H]1[C@H](O)C[C@@]2(C)[C@@H]3CC=C4[C@@H](C=C(O)C(=O)C4(C)C)[C@]3(C)C(=O)C[C@]12C` in this assay:
Reply: NO

Query: So what was the verdict on CC(C)NC(=O)C(Cl)CCl (stereo not drawn) in this test?
Reply: NO

Query: Dear all, I need the recorded test outcome for `O=c1[nH]cnc2c1ncn2-c1ccc(N(CCCl)CCCl)cc1` , thank you.
Reply: NO

Query: Any idea what this test logged for `Oc1ccccc1C=NCCN=Cc1ccccc1O.[Zn+2]` ?
Reply: NO

Query: Tell me the recorded outcome of this test for CCOC(=O)C(Br)CBr (stereo not drawn) .
Reply: NO

Query: How was `Nc1nc(N)c2[nH]c(N)nc2n1` classified in this test?
Reply: NO

Query: Hi, sorry to bother you, what did the test record for `CCc1cc[c]([Sb](=[O])([OH])[OH])cc1` ?
Reply: NO
